system: human LDL receptor promoter; assay: in vitro Luciferase Activity Test (LDL receptor promoter-luciferase reporter in recombinant CHO cells); assay type: cell-based; conditions: relative effective dose compared to compound of Example 4; below one = more active; 30% luciferase activity cutoff point (footnote 1)
METRIC: RED

Worked cases, RED given:
- MOLECULE: "C/C=C/C[C@@H]1[C@H](NC(C)=O)CC[C@@]2(C)[C@H]1CC[C@@H]1[C@@H]2CC[C@]2(C)[C@@H]([C@H](C)CCCC(C)C)CC[C@@H]12 [Example 9]"
  RECORDED_MEASUREMENT: 0.88
- MOLECULE: "C=C(C)C[C@@H]1[C@H](O)CC[C@@]2(C)[C@H]1CC[C@@H]1[C@@H]2CC[C@]2(C)[C@@H]([C@H](C)CCCC(C)C)CC[C@@H]12 [Example 89]"
  RECORDED_MEASUREMENT: 0.25
- MOLECULE: "C=CC[C@@H]1[C@H](NC(C)=O)CC[C@@]2(C)[C@H]1CC[C@@H]1[C@@H]2CC[C@]2(C)[C@@H]([C@H](C)CCCC(C)C)CC[C@@H]12 [Example 81]"
  RECORDED_MEASUREMENT: 7.9
- MOLECULE: "C=CC[C@@H]1[C@H](N)CC[C@@]2(C)[C@H]1CC[C@@H]1[C@@H]2CC[C@]2(C)[C@@H]([C@H](C)CCCC(C)C)CC[C@@H]12 [Example 86]"
  RECORDED_MEASUREMENT: 2.0

Next, consider the following molecule.
// query RED value for entry C/C=C/C[C@@H]1[C@H](O)CC[C@@]2(C)[C@H]1CC[C@@H]1[C@@H]2CC[C@]2(C)[C@@H]([C@H](C)CCCC(C)C)CC[C@@H]12 [Example 4, [4a(E),5a]-4-(2-butenyl)cholestan-3a-ol]
1.00

* * *

tested on: Syrian Golden hamsters; test: In vivo serum cholesterol lowering in hamsters fed a cholesterol test diet; details: hamsters, 0.2% (w/w) in Cholesterol Test Diet for one week, equivalent to 100 mg/kg/day; groups of six; control mean 337
METRIC: Serum Cholesterol Mean (mg/dL)
Numbers only, in mg/dL.

Worked cases, Serum Cholesterol Mean given:
- MOLECULE: "C=CC[C@H]1C2CC[C@H]3[C@@H]4CC[C@H]([C@@](C)(O)CCCC(C)C)[C@@]4(C)CC[C@@H]3[C@@]2(C)CC[C@H]1O (some centres unmarked) [(13)]"
  TGT: "Syrian Golden hamsters"
  RECORDED_MEASUREMENT: 253
- MOLECULE: "C=CC[C@@H]1[C@H](OC(=O)CCCCCCCCCCCCCCCCC)CC[C@@]2(C)[C@H]1CC[C@@H]1[C@@H]2CC[C@]2(C)[C@@H]([C@H](C)CCCC(C)C)CC[C@@H]12 [Example 99]"
  TGT: "Syrian Golden hamsters"
  RECORDED_MEASUREMENT: 328
- MOLECULE: "CC(C)CCC[C@@H](C)[C@H]1CC[C@H]2[C@@H]3CCC4[C@H](Cc5ccc(O)cc5)[C@H](O)CC[C@]4(C)[C@H]3CC[C@]12C (some centres unmarked) [Example 36, 4a-(4-hydroxybenzyl)cholestan-3a-ol]"
  TGT: "Syrian Golden hamsters"
  RECORDED_MEASUREMENT: 261
- MOLECULE: "CC(C)CCC[C@@H](C)[C@H]1CC[C@H]2[C@@H]3CCC4[C@H](Cc5ccc(OC(F)(F)F)cc5)[C@H](O)CC[C@]4(C)[C@H]3CC[C@]12C (some centres unmarked) [Example 30]"
  TGT: "Syrian Golden hamsters"
  RECORDED_MEASUREMENT: 209
- MOLECULE: "C/C=C/C[C@@H]1[C@H](O)CC[C@@]2(C)[C@H]1CC[C@@H]1[C@@H]2CC[C@]2(C)[C@@H]([C@H](C)CCCC(C)C)CC[C@@H]12 [Example 4, [4a(E),5a]-4-(2-butenyl)cholestan-3a-ol]"
  TGT: "Syrian Golden hamsters"
  RECORDED_MEASUREMENT: 210
- MOLECULE: "CC(C)CCC[C@@H](C)[C@H]1CC[C@H]2[C@@H]3CCC4[C@H](Cc5ccc(I)cc5)[C@H](O)CC[C@]4(C)[C@H]3CC[C@]12C (some centres unmarked) [Example 25, 4a-(4-iodobenzyl)cholestan-3a-ol]"
  TGT: "Syrian Golden hamsters"
  RECORDED_MEASUREMENT: 240
- MOLECULE: "CC=CC[C@@H]1[C@@H](O)CC[C@@]2(C)[C@H]1CC[C@@H]1[C@@H]2CC[C@]2(C)[C@@H]([C@H](C)CCCC(C)C)CC[C@@H]12 [(12), (3β,4α,5α)-4-(2-butenyl)cholestan-3-ol]"
  TGT: "Syrian Golden hamsters"
  RECORDED_MEASUREMENT: 245
- MOLECULE: "C=CC[C@H]1C2CC[C@@H]3[C@H](CC[C@]4(C)C(OCCCC(C)C)CC[C@@H]34)[C@@]2(C)CC[C@H]1O (some centres unmarked) [Example 66]"
  TGT: "Syrian Golden hamsters"
  RECORDED_MEASUREMENT: 234
- MOLECULE: "CC(C)CCC[C@@H](C)[C@H]1CC[C@H]2[C@@H]3CC[C@H]4C[C@H](O)CC[C@]4(C)[C@H]3CC[C@]12C [(24), 5a-cholestan-3a-ol, reference compound]"
  TGT: "Syrian Golden hamsters"
  RECORDED_MEASUREMENT: 422
- MOLECULE: "CC(C)CCC[C@@H](C)[C@H]1CC[C@H]2[C@@H]3CC[C@H]4[C@H](CC=C(Br)Br)[C@H](O)CC[C@]4(C)[C@H]3CC[C@]12C [(14)]"
  TGT: "Syrian Golden hamsters"
  RECORDED_MEASUREMENT: 259

Next, consider the following molecule.
// query Serum Cholesterol Mean value for entry C=CCC1C(=O)CC[C@@]2(C)C1CC[C@H]1[C@@H]3CC[C@H]([C@H](C)CCCC(C)C)[C@@]3(C)CC[C@@H]12 (some centres unmarked) [(21), 4-(2-propenyl)cholestan-3-one]
330

* * *

test system: human LDL receptor promoter; experiment: in vitro Luciferase Activity Test (LDL receptor promoter-luciferase reporter in recombinant CHO cells); type: cell-based; settings: Homo sapiens, CHO, maximum activity (%) over control; 15% luciferase activity cutoff point (footnote 2); read-out: MA%
Hi! Just check whether Emax is below 50%. Below gives class 1, equal or above gives class 0.

These recorded examples may help you get a feel for the data.
- MOLECULE: "CC(C)CCC[C@@H](C)[C@H]1CC[C@H]2[C@@H]3CCC4[C@H](Cc5ccc(O)cc5)[C@H](O)CC[C@]4(C)[C@H]3CC[C@]12C (stereo partly drawn) [Example 36, 4a-(4-hydroxybenzyl)cholestan-3a-ol]"
  TGT: "human LDL receptor promoter"
  CLASS_NAME: "class 1"
- MOLECULE: "C=CC[C@H]1C2=CC[C@H]3[C@@H]4CC[C@H]([C@H](C)CCCC(C)C)[C@@]4(C)CC[C@@H]3[C@@]2(C)CC[C@H]1O"
  TGT: "human LDL receptor promoter"
  CLASS_NAME: "class 0"
- MOLECULE: "C=CC[C@H]1C2CC[C@@H]3[C@H](CC[C@]4(C)C(OCCCC(C)(C)C)CC[C@@H]34)[C@@]2(C)CC[C@H]1O (stereo partly drawn)"
  TGT: "human LDL receptor promoter"
  CLASS_NAME: "class 1"
- MOLECULE: "C=CC[C@@H]1[C@H](O)CC[C@@]2(C)[C@H]1CC[C@@H]1[C@@H]2CC[C@]2(C)[C@@H]([C@H](C)CCCN(C)C)CC[C@@H]12"
  TGT: "human LDL receptor promoter"
  CLASS_NAME: "class 0"

Emax strictly < 50% for this molecule? CC(C)CCC[C@@H](C)[C@H]1CC[C@H]2[C@@H]3CCC4[C@H](Cc5ccc(CO)cc5)[C@H](O)CC[C@]4(C)[C@H]3CC[C@]12C (stereo partly drawn)
class 1
